- protocol_text: Toxicity liver stage against HepG2, at 10uM
- Assay type: cell-based
- Design: test concentration 10 uM, cell line HepG2-A16-CD81EGFP
- condition_info: human, HepG2-A16-CD81EGFP cells; read-out: INHIBITION
recorded_endpoint: cytotoxicity at 10 µM (%)
# number only, unit % dropped from output

>>> endpoint_value("CCC(Nc1nnnn1-c1ccccc1)C(=O)NC1CCSCC1 (configuration not stated)")
-16
>>> endpoint_value("Cc1cc(C)n(CC2CN(CCC(=O)NC3CCCCC3)CCO2)n1 (configuration not stated)")
-2.95
>>> endpoint_value("c1cncc(CNCCc2cccs2)c1")
-5.68
>>> endpoint_value("CCCC(=O)N1CCCN(C(=O)c2oc(C)nc2C)CC1")
-3.92

Task item: Please list cytotoxicity at 10 µM recorded for the compound Cc1cccc(C(=O)N2C[C@@H](OCc3ccncc3)[C@@H]3OCCC[C@@H]32)n1
Reply: -5.06

Task item: Please list cytotoxicity at 10 µM recorded for the compound CC(C)NC(=O)C1(CC2CC(c3ccc(F)cc3)=NO2)CCNCC1 (configuration not stated)
Reply: -8.54

###

- protocol_text: Toxicity liver stage against HepG2, at 10uM
- Type: cell-based
- Parameters: test concentration 10 uM, cell line HepG2-A16-CD81EGFP
- condition_info: human, HepG2-A16-CD81EGFP cells; read-out: INHIBITION
# cytotoxicity at 10 µM listing for each entry below
# number only, unit % dropped from output

>>> endpoint_value("CC(Cn1cccn1)NC(=O)NCc1ccc(S(N)(=O)=O)cc1 (stereo unspecified)")
3.63
>>> endpoint_value("CCS(=O)(=O)CCNC1CCN(c2nc3ccc(Cl)cc3s2)CC1")
32
>>> endpoint_value("Cc1nn(C)c(C)c1C1CCCN1Cc1cccc(OCC(N)=O)c1 (stereo unspecified)")
-0.192
>>> endpoint_value("CCN1CCC2(CC1)CN(C(C)=O)c1ccc(C)cc12")
3.98
>>> endpoint_value("O=C(NCCN1CCOCC1)N1CCN(c2ccccc2)CC1")
8.84
>>> endpoint_value("O=C(CCC(F)(F)F)N1CCN(Cc2ccncc2)[C@@H]2CS(=O)(=O)C[C@@H]21")
-2.11

Task item: Please list cytotoxicity at 10 µM recorded for the compound Cc1cc2[nH]c(=O)oc2cc1S(=O)(=O)N1CCCC(N(C)C)CC1 (stereo unspecified)
Reply: 0.74

Task item: Please list cytotoxicity at 10 µM recorded for the compound O=C(O)[C@]12CCCN(Cc3cccs3)C[C@H]1CN(c1ncccn1)C2
Reply: 7.58

Task item: Please list cytotoxicity at 10 µM recorded for the compound NC(=O)N1CCC(NCc2cc(C(F)(F)F)ccc2Cl)CC1
Reply: -0.651

Task item: Please list cytotoxicity at 10 µM recorded for the compound COCCn1cc(C(=O)N2CCCC2c2cc(C)no2)ccc1=O (stereo unspecified)
Reply: -17.7

Task item: Please list cytotoxicity at 10 µM recorded for the compound Cc1ccc(CN2Cc3nnn(C)c3C(COCC3CC3)C2)o1 (stereo unspecified)
Reply: -4.7

###

- protocol_text: Toxicity liver stage against HepG2, at 10uM
- Type: cell-based
- Set-up: test concentration 10 uM, cell line HepG2-A16-CD81EGFP
- condition_info: human, HepG2-A16-CD81EGFP cells; read-out: INHIBITION
# cytotoxicity at 10 µM listing for each entry below
# number only, unit % dropped from output

Please review the entries below; each comes with its answer.
>>> endpoint_value("COCc1ccccc1NC(=O)[C@@H]1CCCN1C(=O)c1ccco1")
-6.34
>>> endpoint_value("COc1ccc2c(c1)C(C(=O)NCCCN1CCN(C)CC1)CC(=O)N2 (stereo not drawn)")
11.2
>>> endpoint_value("CCc1ccc(CNc2ccccc2CN2CCC(O)CC2)o1")
4.34

Task item: Please list cytotoxicity at 10 µM recorded for the compound O=S(=O)(NCC1COCCO1)c1ccc(C2CCCCC2)cc1 (stereo not drawn)
Reply: 27.5

Task item: Please list cytotoxicity at 10 µM recorded for the compound Cc1noc(C)c1CN(C)c1ncnc2onc(C)c12
Reply: -20.7

Task item: Please list cytotoxicity at 10 µM recorded for the compound CCN1CCC2(COCc3cnc(NCC4CC4)nc32)C1 (stereo not drawn)
Reply: -12.9

Task item: Please list cytotoxicity at 10 µM recorded for the compound COC(=O)C1(NCC(=O)Nc2cc(C)ccc2OC)CCCCC1
Reply: 4.02
